- testedSystem: Cytochrome P450 3A4 (Homo sapiens) (UniProt P08684)
- Sequence (P08684 whole entry, looked up): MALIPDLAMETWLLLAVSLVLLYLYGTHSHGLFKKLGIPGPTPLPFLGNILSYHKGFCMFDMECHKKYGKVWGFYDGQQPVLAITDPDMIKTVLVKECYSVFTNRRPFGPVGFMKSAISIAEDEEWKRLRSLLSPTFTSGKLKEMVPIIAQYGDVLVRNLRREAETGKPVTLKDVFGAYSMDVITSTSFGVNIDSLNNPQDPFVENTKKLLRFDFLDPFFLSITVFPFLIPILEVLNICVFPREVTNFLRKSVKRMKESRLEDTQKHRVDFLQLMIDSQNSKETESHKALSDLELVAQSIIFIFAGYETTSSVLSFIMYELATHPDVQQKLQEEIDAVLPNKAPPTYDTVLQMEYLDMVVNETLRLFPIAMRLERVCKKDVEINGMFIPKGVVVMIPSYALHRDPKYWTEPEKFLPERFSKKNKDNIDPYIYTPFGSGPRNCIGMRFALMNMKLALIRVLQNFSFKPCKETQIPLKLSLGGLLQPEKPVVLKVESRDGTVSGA
- assayNotes: Cytochrome panel assay with activity outcomes
- experimentalParameters: recombinant CYP, pro-luciferin dealkylation, luminescence, p450-cyp3a4; series mostly up to 57.1 µM
- Method: The P450 gene superfamily is involved in the metabolism and clearance of xenobiotics. This assay used various human CYP P450 isozymes to measure the dealkylation of various pro-luciferin substrates to luciferin. The luciferin is then measured by luminescence after the addition of a luciferase detection reagent. […] Inhibitors and some substrates limit the production of luciferin, and decrease measured luminescence. […] 8, Detection, 1 sec, ViewLux luminescent read […]
Hit rate of the full screen: of about 16,000 compounds, about 5,100 (32%) were called active. Roughly 25% stayed inconclusive and do not appear here. The call rests on the fitted dose curve; in most records, active means well fitted curve in the direction sought with a large enough effect; inconclusive means small, poorly fitted or top-dose-only effect, or effect the other way; inactive means no such curve, though single readings can be large or run the other way. The list shows a part of the results.
Your reply should match one of these outcome classes. active, inactive

A selection of reference data follows.
Ask | Identify the outcome logged in this assay for the compound shown: `COC(=O)CSc1ccc2nnc(-c3ccc(F)cc3)n2n1`
Reply | inactive

Ask | Give the logged outcome of this assay for the following compound: `COc1ccc(NC(=O)CCOc2ccccc2)cc1`
Reply | active

Ask | Test call for this compound, please: `COc1ccc(NC(=O)c2ccc(COc3ccccc3)o2)cc1`
Reply | active

Others:
Ask | Call for entry `O=C(COC(=O)COc1ccccc1)Nc1ccc(OC(F)(F)F)cc1` :
Reply | inactive

Ask | Test call for this compound, please: `Cc1cc(C)cc(-n2nnnc2SCC(=O)Nc2nc(-c3ccc(Cl)cc3)cs2)c1`
Reply | active

Ask | GET /call?item= `Cc1ccc(OCC(=O)NNC(=O)c2cc3ccccc3o2)cc1C` returns the recorded outcome of this test.
Reply | inactive
